- target-or-system: UniProt:P04062
- Sequence (P04062 40-536): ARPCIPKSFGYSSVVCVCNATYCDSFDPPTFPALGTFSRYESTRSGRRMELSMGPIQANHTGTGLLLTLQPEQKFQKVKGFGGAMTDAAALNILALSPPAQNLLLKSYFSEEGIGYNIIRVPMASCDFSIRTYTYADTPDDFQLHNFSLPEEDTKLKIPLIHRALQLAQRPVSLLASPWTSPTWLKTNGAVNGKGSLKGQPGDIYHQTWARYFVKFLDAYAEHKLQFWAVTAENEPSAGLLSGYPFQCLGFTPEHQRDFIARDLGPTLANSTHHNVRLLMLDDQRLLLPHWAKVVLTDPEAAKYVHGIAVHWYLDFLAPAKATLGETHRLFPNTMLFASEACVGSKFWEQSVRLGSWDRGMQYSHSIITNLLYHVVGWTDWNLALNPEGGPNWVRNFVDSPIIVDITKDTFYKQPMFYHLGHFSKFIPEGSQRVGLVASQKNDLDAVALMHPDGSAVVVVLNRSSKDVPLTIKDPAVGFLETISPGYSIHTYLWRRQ
- assay-info: Glucocerebrosidase activity assay with blue substrate (4MU-Glc)
- Format: biochemical
- test-conditions: Table 2; additional compounds, tested as described in Example 2
observed-property: Emax (%)

| compound | Emax (%) |
| --- | --- |
| CN(CCC(=O)Nc1ccccc1)c1nc(-c2cccnc2)nc2ccccc12 [Compound 127] | 325 |
| Cn1ncc2c(N3CCC[C@H](C(=O)Nc4ccccc4)C3)nc(-c3cccnc3)nc21 [Compound 116] | 210 |
| c1ccc(O[C@H]2CCN(c3nc(-c4cccnc4)nc4ccccc34)C2)cc1 [Compound 154] | 190 |
| c1ccc(O[C@@H]2CCN(c3nc(-c4cccnc4)nc4ccccc34)C2)cc1 [Compound 155] | 260 |
| c1ccc(OC2CCN(c3nc(-c4cccnc4)nc4ccccc34)CC2)cc1 [Compound 166] | 276 |
| CN(CCOc1ccccc1)c1nc(-c2cccnc2)nc2c1cnn2-c1ccccc1 [Compound 151] | 305 |

P = CN(CCOc1ccccc1)c1cc(N2CC(O)C2)nc(-c2cccnc2)n1 [Compound 173]
Q = CCn1ncc2c(N(C)CCOc3ccc(CNC(=O)CCCNC(=O)OC(C)(C)C)cc3)nc(-c3cccnc3)nc21 [Compound 146]
Hi! Which is lower in terms of Emax, the first one P or the second one Q ? Answer with the label corresponding to your selection. P

---

- target-or-system: glucocerebrosidase (Homo sapiens, UniProt P04062)
- Sequence (P04062 40-536): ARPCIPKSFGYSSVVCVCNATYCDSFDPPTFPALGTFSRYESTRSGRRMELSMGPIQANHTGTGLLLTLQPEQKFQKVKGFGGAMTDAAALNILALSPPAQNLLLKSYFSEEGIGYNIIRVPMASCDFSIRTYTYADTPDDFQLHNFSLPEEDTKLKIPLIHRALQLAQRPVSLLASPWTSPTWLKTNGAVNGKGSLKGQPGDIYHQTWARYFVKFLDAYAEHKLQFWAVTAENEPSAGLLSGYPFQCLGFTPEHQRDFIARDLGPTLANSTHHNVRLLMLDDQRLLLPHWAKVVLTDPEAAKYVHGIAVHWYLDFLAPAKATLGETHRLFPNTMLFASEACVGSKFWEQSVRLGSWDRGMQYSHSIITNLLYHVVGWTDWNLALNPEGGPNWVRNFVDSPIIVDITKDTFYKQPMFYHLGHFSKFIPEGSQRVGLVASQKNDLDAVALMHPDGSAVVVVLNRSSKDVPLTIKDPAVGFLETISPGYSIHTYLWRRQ
- assay-info: Glucocerebrosidase activity assay with blue substrate (4MU-Glc)
- Type: biochemical
- test-conditions: Table 1; 7.5 nM enzyme, 1.5 mM 4MU-Glc, 30 min at 37° C.
observed-property: Emax (%)

| molecule | unit-name | Emax |
| --- | --- | --- |
| CN(CCOc1ccccc1)c1nc(-c2cccnc2)nc2scnc12 [Compound 93] | % | 270 |
| CN(CCOc1ccccc1)c1nc(-c2cccnc2)nc2c1ccn2C [Compound 72] | % | 927 |
| COC(=O)Cc1ccc(CNc2nc(-c3cccnc3)nc3ccccc23)cc1 [Compound 61] | % | 127 |
| COC(=O)Cc1cccc(OCCN(C)c2nc(-c3cccnc3)nc3ccccc23)c1 [Compound 95] | % | 721 |
| COC(=O)Cc1cccc(OCCN(C)c2nc(-c3cccnc3)nc3c2cnn3C)c1 [Compound 90] | % | 908 |

I = c1ccc(OC2CCN(c3nc(-c4cccnc4)nc4ccccc34)C2)cc1 (centres unmarked) [Compound 22]
II = CN(CCOc1ccccc1)c1cc(-c2ccccc2)nc(-c2cccnc2)n1 [Compound 65]
III = Cc1sc2nc(-c3cccnc3)nc(N(C)CCOc3ccccc3)c2c1C [Compound 55]
IV = CN(CCOc1ccccc1)c1nc(-c2cccnc2)nc2ccccc12 [Compound 13]
Rank order required: Emax, descending. Write the labels out in the order the request specifies. IV, III, I, II

P = CN(CCOc1ccccc1)c1nc(-c2cccnc2)nc2ccsc12 [Compound 59]
Q = CN(C[C@H]1COc2ccccc2O1)c1nc(-c2cccnc2)nc2c1cnn2C [Compound 10]
R = CN(CC1CCc2ccccc2C1)c1nc(-c2cccnc2)nc2ccccc12 (centres unmarked) [Compound 75]
S = Cn1ncc2c(NCC3CCc4ccccc4O3)nc(-c3cccnc3)nc21 (centres unmarked) [Compound 87]
T = Cn1ncc2c(N3CC[C@@H](Oc4ccccc4)C3)nc(-c3cccnc3)nc21 [Compound 100]
Rank order required: Emax, descending. Write the labels out in the order the request specifies. T, Q, P, S, R

a = CN(CCOc1ccccc1)c1nc(-c2cccnc2)nc2c1COC2 [Compound 73]
b = CCn1ncc2c(N(C)CCOc3ccc(CNC(=O)CCCCCN)cc3)nc(-c3cccnc3)nc21 [Compound 112]
Hi! Which is lower in terms of Emax, the first one a or the second one b ? Answer with the label corresponding to your selection. a
(a: 330%, b: 530%)

---

- target-or-system: glucocerebrosidase (Homo sapiens)
- assay-info: Glucocerebrosidase activity assay with blue substrate (4MU-Glc)
- Format: biochemical
- test-conditions: Table 1; 7.5 nM enzyme, 1.5 mM 4MU-Glc, 30 min at 37° C., titration 24 nM to 50 μM
observed-property: AC50 (µM)

| line-notation | AC50, µM |
| --- | --- |
| CN(CCOc1cccc(CC(=O)ON2C(=O)CCC2=O)c1)c1nc(-c2cccnc2)nc2c1cnn2C | 7.94 |
| c1ccc(O[C@@H]2CCCN(c3nc(-c4cccnc4)nc4ccccc34)C2)cc1 | 1.78 |
| CN(CCOc1ccccc1)c1nc(-c2cccnc2)nc2cc(C(F)(F)F)ccc12 | 4.12 |
| CCn1ncc2c(N(C)Cc3ccc4c(c3)OCO4)nc(-c3cccnc3)nc21 | 7.08 |

a = CN(CCOc1ccccc1)c1nc(-c2cccnc2)nc2ncccc12
b = CN(CCOc1ccccc1)c1nc(-c2cccnc2)nc2scnc12
c = CN(CCOc1ccc(C(=O)O)cc1)c1nc(-c2cccnc2)nc2ccccc12
d = CN(CCOc1ccccc1)c1nc(-c2ccc(Cl)nc2)nc2ccccc12
Provide the items ranked by increasing AC50. Write the labels out in the order the request specifies. d, b, a, c
(d: 1.58 µM, b: 4.47 µM, a: 7.08 µM, c: 12.6 µM)

---

- target-or-system: glucocerebrosidase (Homo sapiens)
- assay-info: Glucocerebrosidase activity assay with blue substrate (4MU-Glc)
- Type: biochemical
- test-conditions: Table 2; additional compounds, tested as described in Example 2
observed-property: Emax (%)

| molecule | data-value |
| --- | --- |
| CCn1ncc2c(N3CC[C@@H](Oc4ccccc4)C3)nc(-c3cccnc3)nc21 | 580 |
| CN(CCOc1ccccc1)c1cc(N2CC[C@@H](O)C2)nc(-c2cccnc2)n1 | 280 |

1 = CC(C)Cn1ncc2c(N(C)CCOc3ccccc3)nc(-c3cccnc3)nc21
2 = CN(CCOc1ccccc1)c1cc(C2CC[C@H](O)C2)nc(-c2cccnc2)n1 (stereo partly drawn)
3 = CCCCCC(=O)NCc1ccc(OCCN(C)c2nc(-c3cccnc3)nc3c2cnn3CC)cc1
4 = CCc1ccc(-c2nc(N(C)CCOc3ccc(C#N)cc3)c3cnn(CC)c3n2)cc1
Rank order required: Emax, descending. Write the labels out in the order the request specifies. 2, 1, 3, 4
(2: 525%, 1: 340%, 3: 150%, 4: 105%)

---

- target-or-system: glucocerebrosidase (Homo sapiens, UniProt P04062)
- Sequence (P04062 40-536): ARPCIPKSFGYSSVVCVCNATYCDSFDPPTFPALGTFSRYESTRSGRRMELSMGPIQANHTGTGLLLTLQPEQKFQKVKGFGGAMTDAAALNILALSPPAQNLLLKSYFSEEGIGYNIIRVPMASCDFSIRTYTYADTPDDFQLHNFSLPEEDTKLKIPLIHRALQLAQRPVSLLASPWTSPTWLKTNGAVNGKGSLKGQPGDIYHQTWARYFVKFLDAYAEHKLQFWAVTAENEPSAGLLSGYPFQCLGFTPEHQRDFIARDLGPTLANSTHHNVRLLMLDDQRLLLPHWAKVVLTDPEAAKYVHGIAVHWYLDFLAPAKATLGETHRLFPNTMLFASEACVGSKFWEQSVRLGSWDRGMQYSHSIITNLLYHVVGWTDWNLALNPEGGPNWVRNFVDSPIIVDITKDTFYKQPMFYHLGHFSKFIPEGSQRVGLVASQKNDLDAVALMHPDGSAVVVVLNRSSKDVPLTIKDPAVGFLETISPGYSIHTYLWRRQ
- assay-info: Glucocerebrosidase activity assay with blue substrate (4MU-Glc)
- Format: biochemical
- test-conditions: Table 1; 7.5 nM enzyme, 1.5 mM 4MU-Glc, 30 min at 37° C., titration 24 nM to 50 μM
observed-property: AC50 (µM)

P = CN(c1nc(-c2cccnc2)nc2c1cnn2C)C1CCCN(c2ccccc2)C1 (stereo not drawn) [Compound 88]
Q = CN(CCOc1ccccc1)c1nc(-c2cccnc2)nc2c1CCC2 [Compound 56]
Hi! Which is lower in terms of AC50, the first one P or the second one Q ? Answer with the label corresponding to your selection. Q
